Value source: ChEMBL document CHEMBL1143313

System: Escherichia coli
Test: Bactericidal activity against Escherichia coli NIHJ JC-2 preincubated for 1 min before addition of growth medium measured after 40 to 48 hrs
Type: functional
Recorded measurements of MBC, one per entry

Record excerpt, results attached:
COMPOUND_SMILES: CC(=O)O.CCCCCCCCCCNC1=NC(C)(C)NC(NCc2ccccc2)=N1
OBSERVABLE: MBC
ENDPOINT_RESULT: 25 µg/mL

COMPOUND_SMILES: CCCCCCCCCNC1=NC(C)(C)NC(NCc2ccc(OC)cc2)=N1.CS(=O)(=O)O
OBSERVABLE: MBC
ENDPOINT_RESULT: 12.5 µg/mL

COMPOUND_SMILES: CC(=O)O.CCCCCCCCNC1=NC(NCCCCC)=NC(C)(C)N1
OBSERVABLE: MBC
ENDPOINT_RESULT: 12.5 µg/mL

Inquiry: What reported MBC corresponds to CC(=O)O.CCCCCCCCCCNC1=NC(C)(C)NC(NCc2ccc(OC)cc2)=N1 on Escherichia coli?
Reply text: 12.5 µg/mL

Inquiry: What measured MBC is associated with CC(=O)O.CCCCCCCCNC1=NC(C)(C)NC(NCc2ccc(C)cc2)=N1 on Escherichia coli?
Reply text: 12.5 µg/mL

Inquiry: What reported MBC corresponds to CC(=O)O.CCCCCCCCNC1=NC(C)(C)NC(NCc2ccccc2Cl)=N1 on Escherichia coli?
Reply text: 3.1 µg/mL

Inquiry: For Escherichia coli, provide MBC of N=C(NCCCCCCNC(=N)NC(=N)Nc1ccc(Cl)cc1)NC(=N)Nc1ccc(Cl)cc1.O=C(O)[C@H](O)[C@@H](O)[C@H](O)[C@H](O)CO please.
Reply text: 62.5 µg/mL

Inquiry: Value wanted: MBC (Escherichia coli) of entry CC(=O)O.CCCCCCCCNC1=NC(C)(C)NC(NCc2ccc(Cl)cc2)=N1
Reply text: 3.1 µg/mL

Inquiry: Provide the documented MBC with Escherichia coli as the system for CC(=O)O.CCCCCCCCNC1=NC(C)(C)NC(NCCc2ccccc2)=N1
Reply text: 6.3 µg/mL

Inquiry: Notebook entry, Escherichia coli assay: MBC of CC(=O)O.CCCCCCCCCCNC1=NC(C)(C)NC(NCCc2ccccc2)=N1 = ?
Reply text: 12.5 µg/mL

###

System: Staphylococcus aureus
Test: Bactericidal activity against Staphylococcus aureus 209PJC preincubated for 5 mins before addition of growth medium measured after 40 to 48 hrs
Format: functional
# MBC per record follows
# number only, unit µg/mL dropped from output

COMPOUND_SMILES: CC(=O)O.CCCCCCCCCCCCNC1=NC(C)(C)NC(NCC)=N1
TARGET_OR_TEST_SYSTEM: Staphylococcus aureus
OBSERVABLE: MBC
RESULT_UNIT: µg/mL
ENDPOINT_RESULT: 1.6

COMPOUND_SMILES: CC(=O)O.CCCCCCCNC1=NC(C)(C)NC(NCCCCCCC)=N1
TARGET_OR_TEST_SYSTEM: Staphylococcus aureus
OBSERVABLE: MBC
RESULT_UNIT: µg/mL
ENDPOINT_RESULT: 3.1

Inquiry: What does the data say about its MBC? Entry: CC(=O)O.CCCCCCCCCCNC1=NC(C)(C)NC(NCCc2ccccc2)=N1
Reply text: 12.5

Inquiry: Give the measured MBC of CC(=O)O.CCCCCCCCNC1=NC(C)(C)NC(NCCc2ccccc2)=N1 .
Reply text: 12.5

Inquiry: Look at this molecule and give its reported MBC. CC(=O)O.CCCCCCCCNC1=NC(C)(C)NC(NCCCC)=N1
Reply text: 6.3

Inquiry: Query: MBC; subject: CC(=O)O.CCCCCCCCNC1=NC(C)(C)NC(NCc2ccccc2Cl)=N1
Reply text: 6.3

Inquiry: Return reported MBC; argument: CC(=O)O.CCCCCCCCCNC1=NC(C)(C)NC(NCc2ccc(C)cc2)=N1
Reply text: 3.1

Inquiry: // query MBC value for entry CC(=O)O.CCCCCCCCNC1=NC(C)(C)NC(NCc2ccccc2)=N1
Reply text: 6.3
